Listed here are binders together with their documented EC50.
# Experimental system: T1, human IL-36R overexpressed on 293T-hIL36R-NFκB cells (human, UniProt Q9HB29 20-575)
# T1 construct: Entry includes the signal peptide; also called IL1RL2; IL-1Rrp2
# T1 sequence: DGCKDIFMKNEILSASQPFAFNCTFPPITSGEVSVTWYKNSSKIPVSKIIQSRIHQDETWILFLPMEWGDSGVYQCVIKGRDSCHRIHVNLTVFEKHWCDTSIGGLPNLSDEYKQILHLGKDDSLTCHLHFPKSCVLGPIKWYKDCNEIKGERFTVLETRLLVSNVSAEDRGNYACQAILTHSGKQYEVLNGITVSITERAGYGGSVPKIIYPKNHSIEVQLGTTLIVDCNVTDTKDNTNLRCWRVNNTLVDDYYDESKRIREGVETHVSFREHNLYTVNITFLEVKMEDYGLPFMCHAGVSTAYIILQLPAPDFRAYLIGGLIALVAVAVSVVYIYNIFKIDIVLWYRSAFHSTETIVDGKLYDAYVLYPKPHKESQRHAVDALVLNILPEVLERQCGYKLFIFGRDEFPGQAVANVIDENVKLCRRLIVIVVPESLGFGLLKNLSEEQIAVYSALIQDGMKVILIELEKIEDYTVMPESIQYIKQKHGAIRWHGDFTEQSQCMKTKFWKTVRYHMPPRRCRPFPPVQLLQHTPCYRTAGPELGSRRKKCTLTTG
# Test name: FACS on 293T-hIL36R-NFκB cells, ratio of MFI to background MFI

Look over these answered cases.
| Binder | EC50 |
| --- | --- |
| hz84C4-1.1 (antibody, human IgG4 S228P, kappa, V domains shown, Humanized, human IgG4 / kappa) VH: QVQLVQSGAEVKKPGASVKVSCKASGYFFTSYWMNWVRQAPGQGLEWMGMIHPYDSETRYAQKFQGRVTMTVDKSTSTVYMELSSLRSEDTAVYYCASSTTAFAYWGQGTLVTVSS VL: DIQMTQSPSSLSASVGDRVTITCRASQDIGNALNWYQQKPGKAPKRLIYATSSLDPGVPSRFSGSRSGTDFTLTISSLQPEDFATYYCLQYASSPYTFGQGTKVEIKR | ~5.28 nM |
| hz84C4-1.5 (antibody, human IgG4 S228P, kappa, V domains shown, Humanized, human IgG4 / kappa) VH: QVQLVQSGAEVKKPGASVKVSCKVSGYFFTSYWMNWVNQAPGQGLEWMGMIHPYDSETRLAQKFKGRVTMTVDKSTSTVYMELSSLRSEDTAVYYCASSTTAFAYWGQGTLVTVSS VL: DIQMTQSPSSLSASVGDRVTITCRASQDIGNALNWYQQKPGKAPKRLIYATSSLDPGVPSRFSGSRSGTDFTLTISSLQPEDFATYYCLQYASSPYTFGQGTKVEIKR | ~5.1 nM |

# context switch: different binder, same EC50
According to the records, this binder hz84C4-2.4 (antibody, human IgG4 S228P, kappa, V domains shown, Humanized, human IgG4 / kappa) VH: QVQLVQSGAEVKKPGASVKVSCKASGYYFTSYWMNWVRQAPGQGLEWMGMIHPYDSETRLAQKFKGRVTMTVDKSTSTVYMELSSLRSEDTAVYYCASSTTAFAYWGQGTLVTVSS VL: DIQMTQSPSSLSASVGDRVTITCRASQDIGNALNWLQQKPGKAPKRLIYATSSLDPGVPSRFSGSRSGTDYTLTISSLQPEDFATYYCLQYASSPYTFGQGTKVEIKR displays EC50 of ~5.26 nM

From: patent US20240270857A1
